system: MDCK cells; settings: dog, 48 h
Parameter: CC50. Scope: all listed entries.
Please respond with the number in mg/L and leave the unit unwritten.

COc1ccc2nc(NCCCCCOc3c(OC)ccc4cc5[n+](cc34)CCc3cc4c(cc3-5)OCO4)sc2c1 306.4
CCOc1ccc2nc(NCCCCCOc3c(OC)ccc4cc5[n+](cc34)CCc3cc4c(cc3-5)OCO4)sc2c1 221.4
COc1ccc2cc3[n+](cc2c1OCCCCCNNc1nc2ccccc2s1)CCc1cc2c(cc1-3)OCO2 304.3
COc1ccc2cc3[n+](cc2c1OCCCCCNc1nc2ccc(C)cc2s1)CCc1cc2c(cc1-3)OCO2 322.6
COc1ccc2cc3[n+](cc2c1OCCCCCNc1nc2ccc([N+](=O)[O-])cc2s1)CCc1cc2c(cc1-3)OCO2 340.5
COc1ccc2cc3[n+](cc2c1OCCCCCNc1nc2ccc(C(=O)O)cc2s1)CCc1cc2c(cc1-3)OCO2 382.9

Problem: Can you look up CC50 on MDCK cells for "COc1ccc2cc3[n+](cc2c1OCCCCCNc1nc2ccc(Cl)cc2s1)CCc1cc2c(cc1-3)OCO2" ?
Result: 463.5

Problem: Can you look up CC50 on MDCK cells for "COc1ccc2cc3[n+](cc2c1OCCCCCNc1nc2ccc(Br)cc2s1)CCc1cc2c(cc1-3)OCO2" ?
Result: 328.9

====

system: influenza A virus A/Vic/3/75 (H3N2); test: In vitro antiviral bioassay (CPE reduction, SRB) in MDCK cells; type: cell-based; conditions: Influenza A virus, H3N2, MDCK, 48 h
quantity.kind: IC50 (µg/mL)
Please respond with the number in µg/mL and leave the unit unwritten.

Completed entries (count: 3):
molecule	unit.of.measurement	reported.result
COc1ccc2cc3[n+](cc2c1OCCCCCNNc1nc2ccccc2s1)CCc1cc2c(cc1-3)OCO2	µg/mL	56.3
COc1ccc2cc3[n+](cc2c1OCCCCCNc1nc2ccc([N+](=O)[O-])cc2s1)CCc1cc2c(cc1-3)OCO2	µg/mL	52.2
CCOC(=O)C1=C[C@@H](OC(CC)CC)[C@H](NC(C)=O)[C@@H](N)C1 [OSELTAMIVIR, Oseltamivir phosphate, reference compound]	µg/mL	22.1

Problem: Which IC50 value belongs to "COc1ccc2cc3[n+](cc2c1OC)CCc1cc2c(cc1-3)OCO2" ?
Result: 41.6

Problem: Which IC50 value belongs to "CCOc1ccc2nc(NCCCCCOc3c(OC)ccc4cc5[n+](cc34)CCc3cc4c(cc3-5)OCO4)sc2c1" ?
Result: 60.4

Problem: Which IC50 value belongs to "COc1ccc2cc3[n+](cc2c1OCCCCCNc1nc2ccc(I)cc2s1)CCc1cc2c(cc1-3)OCO2" ?
Result: 54.2

Problem: Which IC50 value belongs to "COc1ccc2cc3[n+](cc2c1OCCCCCNc1nc2ccc(Br)cc2s1)CCc1cc2c(cc1-3)OCO2" ?
Result: 70.7

Problem: Which IC50 value belongs to "COc1ccc2cc3[n+](cc2c1OCCCCCNc1nc2ccc(C)cc2s1)CCc1cc2c(cc1-3)OCO2" ?
Result: 55

Problem: Which IC50 value belongs to "COc1ccc2cc3[n+](cc2c1OCCCCCNc1nc2ccc(Cl)cc2s1)CCc1cc2c(cc1-3)OCO2" ?
Result: 38.8

Problem: Which IC50 value belongs to "COc1ccc2cc3[n+](cc2c1OCCCCCNc1nc2ccc(F)cc2s1)CCc1cc2c(cc1-3)OCO2" ?
Result: 49.9

Problem: Which IC50 value belongs to "COc1ccc2nc(NCCCCCOc3c(OC)ccc4cc5[n+](cc34)CCc3cc4c(cc3-5)OCO4)sc2c1" ?
Result: 57.3
